- test-method-notes: Octanol-water partition coefficient, log P of the compound
- Assay type: physicochemical
metric-name: logP

compound="COc1ccc(C2Sc3cc(C)ccc3N=C3c4ccccc4C(c4ccccc4)C32)cc1 (stereo not given)" metric_name=logP measured_result=7.18
compound="COc1ccc2c(c1)SC(c1ccc(C)cc1)C1C(=N2)c2ccccc2C1c1ccccc1 (stereo not given)" metric_name=logP measured_result=7.18
compound="COc1ccc2c(c1)SC(c1ccccc1)C1C(=N2)c2ccccc2C1c1ccccc1 (stereo not given)" metric_name=logP measured_result=6.71
compound="Cc1ccc(C2Sc3cc(C)ccc3N=C3c4ccccc4C(c4ccccc4)C32)cc1 (stereo not given)" metric_name=logP measured_result=7.9
compound="COc1ccc2c(c1)SC(c1ccc(Cl)cc1)C1C(=N2)c2ccccc2C1c1ccccc1 (stereo not given)" metric_name=logP measured_result=7.23

Where do the numbers come from? From ChEMBL document CHEMBL2203136.
